Target: c-Src SH2;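 also: peptide library displayed on the E. coli surface as eCPX fusions, selected cells deep-sequenced, score is each peptide's frequency after selection divided by its frequency in the input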
Test: SH2 binding enrichment of the phosphorylated peptide, bacterial display (enrichment ratio); higher = better substrate or ligand; peptides without Tyr show the background
Given measured SH2 binding enrichment, output T if it is greater than or equal to 0.6 and F if not.

For orientation, consider the following solved cases.
{"SEQUENCE CODE": "QPGDIYHQTWA [GBA_Y244]", "GROUP": "F"}
{"SEQUENCE CODE": "EKAEVYGSENE [RIOK2_Y348]", "GROUP": "T"}
{"SEQUENCE CODE": "LRAGVYHEKDQ [DNM2_Y626_P627H]", "GROUP": "F"}
{"SEQUENCE CODE": "NRSSLYLVAGP [KIAA1614_Y1083]", "GROUP": "F"}
{"SEQUENCE CODE": "REGAKYVSHCA [ASS1_Y113_G117C]", "GROUP": "T"}

Quick check: does RPGSGYTNIMR [PKLR_Y564] have SH2 binding enrichment greater than or equal to 0.6?
T

Quick check: does RGFRQDAFDGK [HLA-A_Y140_YF] have SH2 binding enrichment greater than or equal to 0.6?
F

Quick check: does FADIAYNFRHR [PAH_Y166_G171R_YF] have SH2 binding enrichment greater than or equal to 0.6?
F

---

Molecular target: Jak2 (UniProt O60674)
Sequence (O60674 whole entry, looked up): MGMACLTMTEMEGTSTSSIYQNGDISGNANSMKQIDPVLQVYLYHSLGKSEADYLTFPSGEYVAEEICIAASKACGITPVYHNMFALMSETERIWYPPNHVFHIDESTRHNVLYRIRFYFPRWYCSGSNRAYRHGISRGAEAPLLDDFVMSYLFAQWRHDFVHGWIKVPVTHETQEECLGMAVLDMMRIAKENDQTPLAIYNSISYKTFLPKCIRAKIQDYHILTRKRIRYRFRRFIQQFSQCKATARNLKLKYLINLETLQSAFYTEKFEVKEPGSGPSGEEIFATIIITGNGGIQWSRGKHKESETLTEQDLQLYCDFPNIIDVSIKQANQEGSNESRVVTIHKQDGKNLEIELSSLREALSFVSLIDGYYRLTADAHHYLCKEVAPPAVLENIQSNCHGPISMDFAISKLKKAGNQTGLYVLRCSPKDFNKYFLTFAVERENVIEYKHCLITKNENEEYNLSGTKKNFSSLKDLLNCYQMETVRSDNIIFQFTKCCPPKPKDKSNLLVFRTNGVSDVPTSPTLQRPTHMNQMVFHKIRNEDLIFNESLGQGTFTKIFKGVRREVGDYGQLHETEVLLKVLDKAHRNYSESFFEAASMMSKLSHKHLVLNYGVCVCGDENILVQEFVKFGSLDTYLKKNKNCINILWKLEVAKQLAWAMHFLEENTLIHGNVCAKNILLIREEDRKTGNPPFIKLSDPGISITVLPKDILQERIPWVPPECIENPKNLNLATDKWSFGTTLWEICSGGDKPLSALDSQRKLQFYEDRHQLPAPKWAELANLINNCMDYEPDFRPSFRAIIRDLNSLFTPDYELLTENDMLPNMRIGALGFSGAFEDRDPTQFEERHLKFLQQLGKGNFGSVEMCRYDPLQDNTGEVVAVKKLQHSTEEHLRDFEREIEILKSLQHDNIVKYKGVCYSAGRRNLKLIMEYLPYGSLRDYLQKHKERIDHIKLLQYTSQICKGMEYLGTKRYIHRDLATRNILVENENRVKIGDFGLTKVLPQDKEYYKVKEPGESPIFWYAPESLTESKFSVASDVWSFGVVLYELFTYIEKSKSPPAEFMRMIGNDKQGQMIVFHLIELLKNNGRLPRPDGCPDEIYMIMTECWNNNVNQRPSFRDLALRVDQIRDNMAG
Assay: phosphorylation enrichment, bacterial display (enrichment ratio); higher = better substrate or ligand; peptides without Tyr show the background
Given measured phosphorylation enrichment, output criterion met if it is greater than or equal to 0.7 and criterion not met if not.

For orientation, consider the following solved cases.
{"SEQUENCE CODE": "CTTIHYNYTCN [TP53_Y234_M237T]", "MEASUREMENT TARGET": "Jak2 (UniProt O60674)", "GROUP": "criterion met"}
{"SEQUENCE CODE": "RSAGKYDVYLI [MECP2_Y120]", "MEASUREMENT TARGET": "Jak2 (UniProt O60674)", "GROUP": "criterion met"}
{"SEQUENCE CODE": "FQASFYRRGDR [LTK_Y677_R673Q_YF]", "MEASUREMENT TARGET": "Jak2 (UniProt O60674)", "GROUP": "criterion not met"}
{"SEQUENCE CODE": "RELGEYGLQAF [ALDH2_Y497_YF]", "MEASUREMENT TARGET": "Jak2 (UniProt O60674)", "GROUP": "criterion met"}
{"SEQUENCE CODE": "GDAMLYFPSVS [GPR143_Y177_A173D_YF]", "MEASUREMENT TARGET": "Jak2 (UniProt O60674)", "GROUP": "criterion met"}

Quick check: does NDDDVYLSLEE [VAV2_Y142_R143L] have phosphorylation enrichment greater than or equal to 0.7?
criterion met

---

Molecular target: EPHB2 (UniProt P29323)
Sequence (P29323 whole entry, looked up): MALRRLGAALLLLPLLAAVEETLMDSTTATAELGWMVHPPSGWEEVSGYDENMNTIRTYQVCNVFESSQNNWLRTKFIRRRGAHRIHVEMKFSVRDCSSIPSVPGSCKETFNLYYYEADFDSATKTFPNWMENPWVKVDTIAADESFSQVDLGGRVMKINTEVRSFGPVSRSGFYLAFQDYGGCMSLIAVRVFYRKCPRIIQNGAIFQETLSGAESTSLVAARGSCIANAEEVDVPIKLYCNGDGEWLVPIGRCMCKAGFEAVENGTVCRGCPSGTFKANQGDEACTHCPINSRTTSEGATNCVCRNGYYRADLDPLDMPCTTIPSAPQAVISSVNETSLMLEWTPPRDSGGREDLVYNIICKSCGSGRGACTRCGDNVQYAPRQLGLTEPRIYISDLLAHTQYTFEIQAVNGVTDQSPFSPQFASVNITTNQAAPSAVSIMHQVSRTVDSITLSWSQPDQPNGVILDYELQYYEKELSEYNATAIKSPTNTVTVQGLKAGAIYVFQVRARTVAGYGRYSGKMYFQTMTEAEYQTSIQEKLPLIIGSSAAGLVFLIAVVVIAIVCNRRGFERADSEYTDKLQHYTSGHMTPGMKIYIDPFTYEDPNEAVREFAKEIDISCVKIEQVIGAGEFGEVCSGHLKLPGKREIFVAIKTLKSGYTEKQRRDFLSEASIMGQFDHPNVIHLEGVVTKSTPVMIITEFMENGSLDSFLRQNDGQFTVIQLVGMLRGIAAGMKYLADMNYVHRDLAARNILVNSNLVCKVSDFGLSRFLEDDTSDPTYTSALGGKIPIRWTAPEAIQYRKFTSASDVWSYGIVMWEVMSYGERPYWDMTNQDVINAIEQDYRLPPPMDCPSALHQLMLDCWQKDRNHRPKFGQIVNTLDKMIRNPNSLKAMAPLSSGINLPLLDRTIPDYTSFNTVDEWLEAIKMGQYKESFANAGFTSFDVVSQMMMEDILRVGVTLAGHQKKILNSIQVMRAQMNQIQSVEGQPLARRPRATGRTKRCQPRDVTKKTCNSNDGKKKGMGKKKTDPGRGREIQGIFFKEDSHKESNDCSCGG
Assay: phosphorylation enrichment, bacterial display (enrichment ratio); higher = better substrate or ligand; peptides without Tyr show the background
MEASURED QUANTITY: phosphorylation enrichment
Give bare numbers.

Below, 6 sequences whose answers are already recorded.
{"SEQUENCE CODE": "IGEGTYGQVFK [CDK13_Y716_YF]", "MEASURED QUANTITY": "phosphorylation enrichment", "READOUT NUMBER": 1.18}
{"SEQUENCE CODE": "SVTCTYTPALN [TP53_Y126_S127T]", "MEASURED QUANTITY": "phosphorylation enrichment", "READOUT NUMBER": 0.639}
{"SEQUENCE CODE": "RRAKGYPIDLY [ITGB2_Y125]", "MEASURED QUANTITY": "phosphorylation enrichment", "READOUT NUMBER": 0.87}
{"SEQUENCE CODE": "SDQRRYSLIDP [CLIP2_Y972_R977P]", "MEASURED QUANTITY": "phosphorylation enrichment", "READOUT NUMBER": 0.567}
{"SEQUENCE CODE": "RAVLLYEYVGK [NATD1_Y45]", "MEASURED QUANTITY": "phosphorylation enrichment", "READOUT NUMBER": 35.4}
{"SEQUENCE CODE": "GLDGSYLLTDS [SH2D1A_Y29_R32T]", "MEASURED QUANTITY": "phosphorylation enrichment", "READOUT NUMBER": 0.541}

# per-item lookup of phosphorylation enrichment; items listed below
1. VISNAYVDLSP [HSD17B4_Y602_A606S]
2. NAGDFYDLFGG [PTPN11_Y63_T59A_YF]
3. LNPVVYTLRNA [OR4C12_Y285]

0.523
0.564
0.636

# per-item lookup of phosphorylation enrichment; items listed below
1. TSKLSYLDPRI [TOP1_Y723_N722S]
2. SEKIVYGHLDD [ACO2_Y71]
3. IGMLIYFARKA [VCAM1_Y718_I716L]
4. MKGDYYCYLAE [YWHAG_Y131_R132C]
5. YGSSSYRGAGG [RPA2_Y14_G15R]

1: 0.427; 2: 0.556; 3: 0.481; 4: 5.89; 5: 0.334

FYI, the data here is from the supplement of paper PMC10065799.
